The reported measurements were obtained from the supplement of paper PMC10567573.

B1: WSB1 (parent)
chain: FSHDGLHVASLADDKMVRFWRIDE

variants of: B1; test: protein stability index of a GFP-peptide fusion (GPS, HEK-293T) (PSI 1-6); higher = more stable; details: c terminus: a fixed tail appended;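 also: lentivirally expressed fusions sorted by FACS into six bins by GFP to DsRed ratio, PSI derived from sequencing read proportions per bin multiplied by bin number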
Answer each item with its documented protein stability index.
Number only, please.

input: Entry under review: F1G . Reported protein stability index?
output: 3.43

input: D13R ?
output: 1.42

input: // query: V8D
output: 1.88

input: Now the variant L6A
output: 1.98

input: For E24G then?
output: 1.23

input: What about this variant? I22E
output: 2.54

input: Param item: G5R
output: 2.07

input: # repeat for G5T
output: 2.27

input: Next record, please: I22P
output: 2.64

input: Entry W20K please
output: 2.69

input: Repeat for the following variant: R21W
output: 2.12

input: Query D14C next
output: 2.36

input: Another variant to look at: H7F
output: 2.87

input: Moving on to S2N
output: 2.78

input: How about this variant: I22Q
output: 2.45

input: Also A9H , if possible.
output: 1.7

input: And for D13G ?
output: 1.04

input: Moving on to R18A
output: 1.41

input: Next entry: F1W
output: 2.3

input: Repeat for the following variant: V8T
output: 1.86

input: Input D14P
output: 2.05

input: Cool, now R18G
output: 1.26

input: Then what about the variant D14Y ?
output: 1.52

input: Same thing, different variant: E24M
output: 2.05

input: Continue with D23M
output: 1.73

input: Follow-up entry: E24P
output: 1.86

input: Also need H7C , thanks.
output: 1.86

input: Input L11A
output: 2.24

input: Param item: H7K
output: 1.17

input: // same read-out, input: D23V
output: 1.81

input: Proceed to A12C
output: 1.95

input: Next entry: K15E
output: 2.68

input: What do you get for V17H ?
output: 1.51

input: Let us now turn to L6R
output: 1.92

input: Same lookup for I22Y , please.
output: 1.69

input: Then what about the variant V8E ?
output: 2.59

input: Lookup A9S
output: 2.17

input: Thanks! And H7D ?
output: 3.61

input: Now consider F19D .
output: 3.37

input: Param item: L6T
output: 1.67

input: Then this variant: L11R
output: 1.66

input: Same thing, different variant: V17D
output: 1.96

input: Please answer likewise for F19R
output: 3.11

input: Entry to check: D13A
output: 1.02

input: Similarly, R21E ?
output: 1.8

input: Now consider A12G and answer again.
output: 3.04
